# System: NCI-H226 lung
# METHOD: NCI tumour cell line growth inhibition, 48 h
METRIC: GI50

Record excerpt, results attached:
COMPOUND: Cc1ccc(/C=C2\CCOC2=O)cc1
METRIC: GI50
RESULT: > 100 µM
--
COMPOUND: Cn1c(=O)c(Cc2ccc(F)cc2F)cc2cnc(NC3CCOCC3)nc21
METRIC: GI50
RESULT: > 21.1 µM

Q. Which GI50 is reported for this compound? O=Nc1c(-c2cccc([N+](=O)[O-])c2)nc2ncccn12
A. 16.2 µM

Q. Which GI50 is reported for this compound? COc1ccc(C2CC(c3cc(OC)c(OC)c(OC)c3)=NN2)cc1 (configuration not stated)
A. 23.8 µM

Q. Which GI50 is reported for this compound? Cc1ccc(/C=C(\C#N)n2nnc3cc(F)c(F)cc32)cc1
A. 6.45 µM

Q. Which GI50 is reported for this compound? CN(C)CCn1cc(-c2ccc3c(Nc4ccc(CC(=O)Nc5cccc(F)c5)cc4)ncnc3c2)cn1
A. > 10 µM

Q. Which GI50 is reported for this compound? O=C1NC(=NCc2ccccn2)S/C1=C\c1ccc2ncccc2c1
A. 15 µM
